Could you please report measured Kd for the items listed next?
molecular target: D-VEGF; test: SPR affinity measurements of GB1 peptidic compounds on immobilized D-VEGF; type: binding; details: Table 1; target D-VEGF
Reply with the number and its unit after it.

Input: Report Kd for E01-D24G: E01 point mutant D24G (protein) MKIEEHHHHHHHHHHGGSTYKLILNGKTLKGETTTEAVDVYGAFDVFFVYAASNFSDFDDWTYDDATKTFTVTEGGSDK please.
Output: 14.9 nM

Input: Report Kd for E01-V31A: E01 point mutant V31A (protein) MKIEEHHHHHHHHHHGGSTYKLILNGKTLKGETTTEAVDVYDAFDVFFAYAASNFSDFDDWTYDDATKTFTVTEGGSDK please.
Output: 7.8 nM

Input: Report Kd for E01-A34S: E01 point mutant A34S (protein) MKIEEHHHHHHHHHHGGSTYKLILNGKTLKGETTTEAVDVYDAFDVFFVYASSNFSDFDDWTYDDATKTFTVTEGGSDK please.
Output: 7.8 nM

Input: Report Kd for E01-S35G: E01 point mutant S35G (protein) MKIEEHHHHHHHHHHGGSTYKLILNGKTLKGETTTEAVDVYDAFDVFFVYAAGNFSDFDDWTYDDATKTFTVTEGGSDK please.
Output: 8.79 nM

Input: Report Kd for E01-D27E: E01 point mutant D27E (protein) MKIEEHHHHHHHHHHGGSTYKLILNGKTLKGETTTEAVDVYDAFEVFFVYAASNFSDFDDWTYDDATKTFTVTEGGSDK please.
Output: 9.6 nM

Input: Report Kd for E01-S38G: E01 point mutant S38G (protein) MKIEEHHHHHHHHHHGGSTYKLILNGKTLKGETTTEAVDVYDAFDVFFVYAASNFGDFDDWTYDDATKTFTVTEGGSDK please.
Output: 9 nM

Input: Report Kd for E01-S38K: E01 point mutant S38K (protein) MKIEEHHHHHHHHHHGGSTYKLILNGKTLKGETTTEAVDVYDAFDVFFVYAASNFKDFDDWTYDDATKTFTVTEGGSDK please.
Output: 13.7 nM

Input: Report Kd for E01-S35R: E01 point mutant S35R (protein) MKIEEHHHHHHHHHHGGSTYKLILNGKTLKGETTTEAVDVYDAFDVFFVYAARNFSDFDDWTYDDATKTFTVTEGGSDK please.
Output: 9.3 nM

Input: Report Kd for E01-F40I: E01 point mutant F40I (protein) MKIEEHHHHHHHHHHGGSTYKLILNGKTLKGETTTEAVDVYDAFDVFFVYAASNFSDIDDWTYDDATKTFTVTEGGSDK please.
Output: 11.1 nM

Input: Report Kd for E01-S35E: E01 point mutant S35E (protein) MKIEEHHHHHHHHHHGGSTYKLILNGKTLKGETTTEAVDVYDAFDVFFVYAAENFSDFDDWTYDDATKTFTVTEGGSDK please.
Output: 7.47 nM
